system: Bacillus subtilis; test: cleaved RNA product abundance (RNA/gDNA barcode ratio) relative to median wild-type variant (ratio to wild type); higher = more accumulation of the downstream cleavage product; settings: experiment (reporter, strain, medium): exp 8a: truncated aprE reporter, strain BJT201 with 2% xylose (RNase J1 expressed); cleavage site: glnRA (positions -5 to +31 mutated)

SEQ_STRING: CGACATGTCCCGCTTCTTTCATTAATCCGTCAGCAACTGTTTAGCTATATACATTTACCTTTTAAGAGGAGGAAT
cleaved RNA product abundance: 0.305
//
SEQ_STRING: CGACATGTCCCGCTTCTTTCATTAATCCGTTAGAAACTGTTGTGCTATATACATTTACCTTTTAAGAGGAGGAAT
cleaved RNA product abundance: 0.361
//
SEQ_STRING: CGACATGTCCCGCTTCTTTCATTAATCTGTTAACAACTGTTTTGCTATATACATTTACCTTTTAAGAGGAGGAAT
cleaved RNA product abundance: 0.238
//
SEQ_STRING: CGACATGTCCCGCTTCTTTCATTACTCCGTTAGCAACTGTTTTGTTATATACATTTACCTTTTAAGAGGAGGAAT
cleaved RNA product abundance: 0.573

---

Reported values of cleaved RNA product abundance for individual entries
system: Bacillus subtilis; assay: cleaved RNA product abundance (RNA/gDNA barcode ratio) relative to median wild-type variant (ratio to wild type); higher = more accumulation of the downstream cleavage product; conditions: experiment (reporter, strain, medium): exp 4a: truncated aprE reporter, strain BJT201 with 2% xylose (RNase J1 expressed); cleavage site: cggR-gapA (positions -7 to +36 mutated)
MEASURED_PROPERTY: cleaved RNA product abundance

SEQ_STRING: ACAGACGAAGGAGCCGCAAAGAAGTTATTAACGGATGAATAATCCCTCAATATAGATATCTCTCACTTATTTAAA
MEASURED_PROPERTY: cleaved RNA product abundance
EXPERIMENTAL_RESULT: 0.158
//
SEQ_STRING: ACAGACGAAGGAGCCGCAAAGAAGTTATTAAGAGATGAATAATCCCTCAATATAAATTTCTCTCACTTATTTAAA
MEASURED_PROPERTY: cleaved RNA product abundance
EXPERIMENTAL_RESULT: 0.164
//
SEQ_STRING: ACAGACGAAGGAGCCGCAAATAAGTTATTAAGGGATGAATAATCCCTCAAGATAAATATCTCTCACTTATTTAAA
MEASURED_PROPERTY: cleaved RNA product abundance
EXPERIMENTAL_RESULT: 0.373
//
SEQ_STRING: ACAGACGAAGGAGCCGCAAAGAAATTATTAAGGGATGGATAATCCCTCAATATAAATATCTCTCACTTATTTAAA
MEASURED_PROPERTY: cleaved RNA product abundance
EXPERIMENTAL_RESULT: 0.62
//
SEQ_STRING: ACAGACGAAGGAGCCGCTACGAAGTTATTAAGGGATGAATAATCTCTCAATATAAATATCTCTCACTTATTTAAA
MEASURED_PROPERTY: cleaved RNA product abundance
EXPERIMENTAL_RESULT: 0.816
//
SEQ_STRING: ACAGACGAAGGAGCCGCAAGGAAGTTATTAAGGGATGAATAATTCCTCAATATAAATATCTCTCACTTATTTAAA
MEASURED_PROPERTY: cleaved RNA product abundance
EXPERIMENTAL_RESULT: 0.793
//
SEQ_STRING: ACAGACGAAGGAGCCGCAAAGAAGTTATTAAGAGATGAATAAACCCTCAATATAAATATCTCTCACTTATTTAAA
MEASURED_PROPERTY: cleaved RNA product abundance
EXPERIMENTAL_RESULT: 0.0846

---

Reported values of cleaved RNA product abundance for individual entries
test system: Bacillus subtilis; experiment: cleaved RNA product abundance (RNA/gDNA barcode ratio) relative to median wild-type variant (ratio to wild type); higher = more accumulation of the downstream cleavage product; conditions: experiment (reporter, strain, medium): exp 8a: truncated aprE reporter, strain BJT201 with 2% xylose (RNase J1 expressed); cleavage site: glnRA (positions -5 to +31 mutated)
MEASURED_PROPERTY: cleaved RNA product abundance

SEQ_STRING: CGACATGTCCCGCTTCTTTCATTAATCCGTTAGCAACTGTTTGGCTATATACAATTACCTTTTAAGAGGAGGAAT
MEASURED_PROPERTY: cleaved RNA product abundance
EXPERIMENTAL_RESULT: 0.279
--
SEQ_STRING: CGACATGTCCCGCTTCTTTCATTAATCCGTTAGCAACCGTTTTTCTATATACATTTACCTTTTAAGAGGAGGAAT
MEASURED_PROPERTY: cleaved RNA product abundance
EXPERIMENTAL_RESULT: 0.384
--
SEQ_STRING: CGACATGTCCCGCTTCTTTCATTAATCCGTTAGCAACTGTATTGCTAAATACATTTACCTTTTAAGAGGAGGAAT
MEASURED_PROPERTY: cleaved RNA product abundance
EXPERIMENTAL_RESULT: 0.438
--
SEQ_STRING: CGACATGTCCCGCTTCTTTCATTAATCCGTTAACAATTGTTTTGCTACATACATTTACCTTTTAAGAGGAGGAAT
MEASURED_PROPERTY: cleaved RNA product abundance
EXPERIMENTAL_RESULT: 0.135

---

test system: Bacillus subtilis; experiment: cleaved RNA product abundance (RNA/gDNA barcode ratio) relative to median wild-type variant (ratio to wild type); higher = more accumulation of the downstream cleavage product; conditions: experiment (reporter, strain, medium): exp 4a: truncated aprE reporter, strain BJT201 with 2% xylose (RNase J1 expressed); cleavage site: cggR-gapA (positions -7 to +36 mutated)
Reported values of cleaved RNA product abundance for individual entries
MEASURED_PROPERTY: cleaved RNA product abundance

SEQ_STRING: ACAGACGAAGGAGCCGCAAAGAAGTTATTAAGGGATGAATAATCCCTCAATATAAATATTTCTCACTTATTTAAA
MEASURED_PROPERTY: cleaved RNA product abundance
EXPERIMENTAL_RESULT: 0.864
//
SEQ_STRING: ACAGACGAAGGAGCCGCAAAGCAGTTAATAAGGGATGAATAATCCCTCAATATAAATATCTCTCACTTATTTAAA
MEASURED_PROPERTY: cleaved RNA product abundance
EXPERIMENTAL_RESULT: 0.298
//
SEQ_STRING: ACAGACGAAGGAGCCGCAAAGAAGTTATTAAGCGATGCATAATCCCTCAATATAAATATCTCTCACTTATTTAAA
MEASURED_PROPERTY: cleaved RNA product abundance
EXPERIMENTAL_RESULT: 0.125
//
SEQ_STRING: ACAGACGAAGGAGCCGCAAAGAAGTTATTAAGGGATAAATAATCCCTCAATATACATATCTCTCACTTATTTAAA
MEASURED_PROPERTY: cleaved RNA product abundance
EXPERIMENTAL_RESULT: 0.699

---

test system: Bacillus subtilis; experiment: cleaved RNA product abundance (RNA/gDNA barcode ratio) relative to median wild-type variant (ratio to wild type); higher = more accumulation of the downstream cleavage product; conditions: experiment (reporter, strain, medium): exp 4a: truncated aprE reporter, strain BJT201 with 2% xylose (RNase J1 expressed); cleavage site: cggR-gapA (positions -7 to +36 mutated)
Reported values of cleaved RNA product abundance for individual entries
MEASURED_PROPERTY: cleaved RNA product abundance

SEQ_STRING: ACAGACGAAGGAGCCGCAAAGAAGTTATTTAGGTATGAATAATCCCTCAATATAAATATCTCTCACTTATTTAAA
EXPERIMENTAL_RESULT: 0.165

SEQ_STRING: ACAGACGAAGGAGCCGCAAAGAAGTTATTAAGGGATGAATAATCCCTAATTATAAATATCTCTCACTTATTTAAA
EXPERIMENTAL_RESULT: 0.447

SEQ_STRING: ACAGACGAAGGAGCCGCAAAGATGTTATTAAGGGATAAATAATCCCTCAATATAAATATCTCTCACTTATTTAAA
EXPERIMENTAL_RESULT: 0.906

SEQ_STRING: ACAGACGAAGGAGCCGCAAAGAAGTTATTAAGGGATGAACAATCCCTAAATATAAATATCTCTCACTTATTTAAA
EXPERIMENTAL_RESULT: 0.62

---

test system: Bacillus subtilis; test: cleaved RNA product abundance (RNA/gDNA barcode ratio) relative to median wild-type variant (ratio to wild type); higher = more accumulation of the downstream cleavage product; conditions: experiment (reporter, strain, medium): exp 2b: truncated aprE reporter, strain BJT200; cleavage site: cggR-gapA (positions -7 to +36 mutated)
Reported values of cleaved RNA product abundance for individual entries

SEQ_STRING: ACAGACGAAGGAGCCGCAAAAAAGTTATTAAGGGATGAATAATCCCTCAAGATAAATATCTCTCACTTATTTAAA
cleaved RNA product abundance: 0.251

SEQ_STRING: ACAGACGAAGGAGCCGCAAAGAAGTTATTAACGGATGAATAAACCCTCAATATAAATATCTCTCACTTATTTAAA
cleaved RNA product abundance: 0.0962

SEQ_STRING: ACAGACGAAGGAGCCGCAAAGAAGTTAGTAAGGGATGAATAATCCATCAATATAAATATCTCTCACTTATTTAAA
cleaved RNA product abundance: 0.251

SEQ_STRING: ACAGACGAAGGAGCCGCAAAGAAGTTATTAAGCGATGAATAATCCCTCAATATAAAAATCTCTCACTTATTTAAA
cleaved RNA product abundance: 0.111

SEQ_STRING: ACAGACGAAGGAGCCGCAAAGATGTTATTAAGGGATGAATAATCCATCAATATAAATATCTCTCACTTATTTAAA
cleaved RNA product abundance: 0.171

SEQ_STRING: ACAGACGAAGGAGCCGCAAAGAAGTTATTAAGGGATGAATACTCCCTCTATATAAATATCTCTCACTTATTTAAA
cleaved RNA product abundance: 0.275

SEQ_STRING: ACAGACGAAGGAGCCGCAAAGAAGTTATTAAAGGATGAATAACCCCTCAATATAAATATCTCTCACTTATTTAAA
cleaved RNA product abundance: 0.105
